Measured values drawn from paper PMC6002473 for this set.

Biological target: ctEzh2 (ctPRC2) (Thermochaetoides thermophila, UniProt G0SDW4)
Construct: Fusion of Ezh2 (residues 191–950) and the VEFS domain of Suz12 (residues 530–691), and full length Eed (residues 1–565); with Eed, Suz12(VEFS)
Sequence (G0SDW4 191-950): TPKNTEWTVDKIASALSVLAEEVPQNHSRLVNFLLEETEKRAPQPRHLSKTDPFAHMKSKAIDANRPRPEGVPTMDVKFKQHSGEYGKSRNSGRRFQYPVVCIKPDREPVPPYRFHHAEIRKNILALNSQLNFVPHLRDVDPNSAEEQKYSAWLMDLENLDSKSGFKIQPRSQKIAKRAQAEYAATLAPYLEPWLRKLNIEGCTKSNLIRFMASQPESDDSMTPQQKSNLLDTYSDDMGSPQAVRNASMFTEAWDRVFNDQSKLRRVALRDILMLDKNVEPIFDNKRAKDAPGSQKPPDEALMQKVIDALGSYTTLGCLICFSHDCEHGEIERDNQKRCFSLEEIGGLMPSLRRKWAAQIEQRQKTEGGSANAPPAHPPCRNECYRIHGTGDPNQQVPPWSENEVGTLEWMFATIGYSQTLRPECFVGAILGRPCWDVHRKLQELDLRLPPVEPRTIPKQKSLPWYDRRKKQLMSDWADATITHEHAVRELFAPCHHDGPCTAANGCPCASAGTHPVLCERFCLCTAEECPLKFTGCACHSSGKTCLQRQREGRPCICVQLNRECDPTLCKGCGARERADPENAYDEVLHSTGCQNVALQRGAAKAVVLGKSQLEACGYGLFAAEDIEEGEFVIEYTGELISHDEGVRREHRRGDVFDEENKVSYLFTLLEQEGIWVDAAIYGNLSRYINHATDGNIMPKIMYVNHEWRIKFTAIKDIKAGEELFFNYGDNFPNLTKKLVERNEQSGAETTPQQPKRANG
Sequence (G0S8H7 whole entry partner, the tested form may be a part): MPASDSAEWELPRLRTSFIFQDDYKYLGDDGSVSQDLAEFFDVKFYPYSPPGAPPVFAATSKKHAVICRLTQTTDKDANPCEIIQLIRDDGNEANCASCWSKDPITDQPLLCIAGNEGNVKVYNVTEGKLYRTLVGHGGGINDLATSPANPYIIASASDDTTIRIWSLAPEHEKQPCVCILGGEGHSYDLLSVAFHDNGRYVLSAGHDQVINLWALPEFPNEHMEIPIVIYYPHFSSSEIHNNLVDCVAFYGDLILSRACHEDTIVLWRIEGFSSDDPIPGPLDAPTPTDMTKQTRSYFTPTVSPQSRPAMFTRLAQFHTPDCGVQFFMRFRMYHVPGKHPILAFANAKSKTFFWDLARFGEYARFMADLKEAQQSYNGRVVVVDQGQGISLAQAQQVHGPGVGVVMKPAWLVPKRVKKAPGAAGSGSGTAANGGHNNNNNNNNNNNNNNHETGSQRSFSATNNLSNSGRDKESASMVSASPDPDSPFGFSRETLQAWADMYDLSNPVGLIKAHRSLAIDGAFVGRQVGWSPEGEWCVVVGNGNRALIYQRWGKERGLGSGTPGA
Sequence (G0RYC6 530-691 partner): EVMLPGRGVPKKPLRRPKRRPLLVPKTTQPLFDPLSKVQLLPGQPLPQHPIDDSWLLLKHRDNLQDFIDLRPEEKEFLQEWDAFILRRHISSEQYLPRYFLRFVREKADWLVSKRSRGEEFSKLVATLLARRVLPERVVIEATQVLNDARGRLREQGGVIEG
Assay: co-crystal structure ([…] Å, soaked); radiometric methyltransferase IC50
pIC50: −log10 of the molar value.
measured_property: pIC50

Requested field: pIC50. Item: CC[C@H](C)n1cc(C)c2c(C(=O)NCc3c(C)cc(C)[nH]c3=O)cc(-c3ccc(N4CCNCC4)nc3)cc21 [GSK126] ~4.00
